Hey, just so you know, these numbers are from the supplement of paper PMC12042874.

Each record here notes measured amyloid nucleation score.
EXPERIMENT: amyloid nucleation score (Sup35N fusion, yeast selection) (log enrichment); library NNK1; higher = more nucleation; inactive = no reads after selection;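 note: zero at mode of non-aggregating sequences after 7 days selection at 30°C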
No unit in the answer, please; the number alone is enough.

Solved entries (count: 4):
- SUBSTANCE: "PWNLIISSYASYYTCKVLVS"
  amyloid nucleation score: -0.563
- SUBSTANCE: "RYSFLANGASSFGCVVLFSL"
  amyloid nucleation score: 0.503
- SUBSTANCE: "RGTWNDMASGEEVVAFIGEY"
  amyloid nucleation score: 0.51
- SUBSTANCE: "RFGFSLSADIMDPRMIVRCM"
  amyloid nucleation score: -0.227

Data request, read-out amyloid nucleation score, for LSAMWKSPMHRERRTWGM
0.096

Now consider MYSHFCVYCNFYLSCNSSLI and answer again.
7.03

Next record, please: SFLNINPRQFSWIYCPLVVY
2.94

Same for QLCGVVK
-1.07

Now give it for WKQLTCWSEILDTIDSL too.
0.901

Would you kindly repeat that for IEVGYLSTCEFLVRMRKL ?
0.346

Now give it for LKGVIYAVANWGWIISGHEV too.
0.837

* * *

EXPERIMENT: amyloid nucleation score (Sup35N fusion, yeast selection) (log enrichment); library NNK1; higher = more nucleation; inactive = no reads after selection
The entries below are paired with their reported amyloid nucleation score.
API doc: respond with a numeric literal and nothing else, no unit.

Take a look at these entries with their results.
- SUBSTANCE: "LLVSLSNCFLIWSSAGSMGG"
  REPORTED_VALUE: 1.81
- SUBSTANCE: "SNWFCGFYDWISVLFNSLKL"
  REPORTED_VALUE: 1.42

Quick one: amyloid nucleation score for FWLIHGMIQMGYVK ?
-0.458

Repeat for the following substance: DCQNYLSFVN
-1.29

Also, VYQVNVGCWSCGCRTVICNR please.
7.93

* * *

EXPERIMENT: amyloid nucleation score (Sup35N fusion, yeast selection) (log enrichment); library NNK1; higher = more nucleation; inactive = no reads after selection
Below: a set of entries, each annotated with reported amyloid nucleation score.
Keep the answer to the number alone.

Please look up its amyloid nucleation score: THNSLFSHVSWYRCVSSGVF
0.304

What do you get for ITFIVAGI ?
-0.113

Try the substance MMRGTLC
0.458

Okay, and DAYTGCIDNSVANAG ?
0.481

* * *

EXPERIMENT: amyloid nucleation score (Sup35N fusion, yeast selection) (log enrichment); library NNK3; higher = more nucleation; inactive = no reads after selection
MEASURE: amyloid nucleation score

Solved entries (count: 4):
- CHAIN: "DYTLDANFEGCHGQLTYMND"
  amyloid nucleation score: "inactive"
- CHAIN: "GADVSSHVKIFINYNLFSFI"
  amyloid nucleation score: 2.55
- CHAIN: "QVTLWFKKNLSELM"
  amyloid nucleation score: "inactive"
- CHAIN: "SMLLVGTPDIIGDS"
  amyloid nucleation score: "inactive"

Which measured amyloid nucleation score value corresponds to ISHVNRSNLVFLYFIVVL ?
0.669

// repeat for VRSRRLLCKNRTVVEARNVV and report
inactive

Let us now turn to CELAKLVRNDSFRKDNQGYS
inactive

Entry QVNKFCYCMVDKLVVVH please
2.27

For FVESSDLMRMSWFWWTGWDL then?
inactive
